Hey, just so you know, these numbers are from patent US8895568B2.

system: Pseudoperonospora cubensis; assay: Cucumber Downy Mildew (PSPECU), foliar spray, percent disease control; assay type: in vivo; conditions: foliar, read-out: PSPECU percent control
Parameter: pest or weed control at 200 µg/mL

Smiles data | pest or weed control at 200 µg/mL
c1ccc(-c2nsc(Oc3ccc(CCNc4ncnc5nccnc45)cc3)n2)cc1 | 50 to 79%
FC(F)(F)c1ccnc(Oc2cccc(OCCNc3ncnc4nccnc34)c2)c1 | 80 to 100%
FC(F)(F)c1ccc(Oc2ccc(OCCNc3ncnc4nccnc34)cc2)nc1 | 80 to 100%
FC(F)(F)c1ccncc1Oc1ccc(CCNc2ncnc3nccnc23)cc1 | 80 to 100%
FC(F)c1ccnc(Oc2ccc(CCNc3ncnc4nccnc34)cc2)c1 | 80 to 100%
O=C(c1ccc(Oc2ccc(CCNc3ncnc4nccnc34)cc2)nc1)C1CC1 | 50 to 79%
Cc1c(CCNc2ncnc3nccnc23)ccc(Oc2ncc(C(F)(F)F)cc2F)c1C | 80 to 100%
FC(F)(F)COc1ccnc(Oc2ccc(CCNc3ncnc4nccnc34)cc2)c1 | 80 to 100%

### Prompt Param item = FC(F)(F)c1cnccc1Oc1cccc(CCNc2ncnc3nccnc23)c1 ; retrieve measured pest or weed control at 200 µg/mL.
### Response 80 to 100%

### Prompt And the next one, Cc1cc(CCNc2ncnc3nccnc23)ccc1Oc1cc(C#N)ccn1 ?
### Response 80 to 100%

### Prompt And the next one, Fc1cnc(Oc2ccc(CCNc3ncnc4nccnc34)cc2)c(F)c1 ?
### Response 80 to 100%

### Prompt And the next one, FC(F)(F)c1ccc(Oc2ccc(CCNc3ncnc4nccnc34)cn2)cc1 ?
### Response 80 to 100%

### Prompt And the next one, CC(C)(C)OC(=O)c1ccc(Oc2ccc(CCNc3ncnc4nccnc34)cc2)nc1 ?
### Response 80 to 100%

### Prompt And the next one, Cc1cc(Oc2cc(C(C)(F)F)ccn2)c(C)cc1CCNc1ncnc2nccnc12 ?
### Response 80 to 100%
